# credit: paper PMC11110727

# Test system: B. bronchiseptica ATCC 4617
# Assay Protocol: Antibacterial activity: MIC/MBC, disc-diffusion
# Assay type: cell-based, Bordetella bronchiseptica
# Run Parameters: Bordetella bronchiseptica, ATCC4617; B. bronchiseptica ATCC 4617; read-out: MIC
Provide the recorded MIC for the entries that follow.

Compound: O=C1CN(/N=C/c2ccc([N+](=O)[O-])o2)C(=O)N1 [NF, nitrofurantoin, reference compound]
MIC: 64 µg/mL
//
Compound: C[Si]1(C)OB(O)c2ccc(S)c(F)c21
MIC: > 100 µg/mL
//
Compound: Cc1cc(NC(=O)CCSc2c(F)cc3c(c2F)[Si](C)(C)OB3O)no1
MIC: > 400 µg/mL

For each of the compounds below, state MIC.
1. C[Si]1(C)OB(O)c2cc(F)c(SCCC(=O)N3CCOCC3)c(F)c21
2. C[Si]1(C)OB(O)c2ccc(SCC(=O)c3ccccc3)c(F)c21

1. > 400 µg/mL
2. > 400 µg/mL

For each of the compounds below, state MIC.
1. C[Si]1(C)OB(O)c2cc(F)c(SCCC#N)c(F)c21
2. C[Si]1(C)OB(O)c2ccc(SC(=O)c3ccc(C(F)(F)F)cc3)c(F)c21
3. C[Si]1(C)OB(O)c2cc(F)c(SC3CC(=O)N(c4ccc(Br)c(C(F)(F)F)c4)C3=O)c(F)c21 (centres unmarked)
4. C[Si]1(C)OB(O)c2ccc(SC3CC(=O)NC3=O)c(F)c21 (centres unmarked)
5. C[Si]1(C)OB(O)c2ccc(SC3CC(=O)N(c4ccc(F)cc4)C3=O)c(F)c21 (centres unmarked)
6. CC(=O)CCSc1c(F)cc2c(c1F)[Si](C)(C)OB2O
7. C[Si]1(C)OB(O)c2ccc(SCCS(=O)(=O)c3ccccc3)c(F)c21

1. > 400 µg/mL
2. > 50 µg/mL
3. 200 µg/mL
4. 12.5 µg/mL
5. > 200 µg/mL
6. 50 µg/mL
7. > 400 µg/mL

For each of the compounds below, state MIC.
1. COC(=O)CCSc1ccc2c(c1F)[Si](C)(C)OB2O
2. C[Si]1(C)OB(O)c2cc(F)c(S(N)(=O)=O)c(F)c21
3. C[Si]1(C)OB(O)c2cc(F)c(SCCC(N)=O)c(F)c21
4. C[Si]1(C)OB(O)c2cc(F)c(S(=O)(=O)Nc3ccc(F)cc3)c(F)c21
5. C[Si]1(C)OB(O)c2cc(F)c(S)c(F)c21
6. C[Si]1(C)OB(O)c2cc(F)c(SCCC(=O)Nc3cnccn3)c(F)c21
7. C[Si]1(C)OB(O)c2cc(F)c(SCCS(=O)(=O)c3ccccc3)c(F)c21
8. CC(=O)CSc1ccc2c(c1F)[Si](C)(C)OB2O

1. > 400 µg/mL
2. > 400 µg/mL
3. > 400 µg/mL
4. > 400 µg/mL
5. > 400 µg/mL
6. > 400 µg/mL
7. > 400 µg/mL
8. > 400 µg/mL

###

Provide the recorded MIC for the entries that follow.
# System: S. cerevisiae ATCC 9763
# Assay Protocol: Antifungal activity: MIC/MFC, disc-diffusion
# Assay type: cell-based, Saccharomyces cerevisiae
# Run Parameters: Saccharomyces cerevisiae, ATCC9763; read-out: MIC

Molecule: C[Si]1(C)OB(O)c2cc(F)c(S(=O)(=O)Nc3ccc(F)cc3)c(F)c21
MIC: > 400 µg/mL
//
Molecule: C[Si]1(C)OB(O)c2ccc(SC3CC(=O)N(c4ccc(Br)c(C(F)(F)F)c4)C3=O)c(F)c21 (centres unmarked)
MIC: 6.25 µg/mL
//
Molecule: C[Si]1(C)OB(O)c2cc(F)c(SC3CC(=O)N(c4ccc(F)cc4)C3=O)c(F)c21 (centres unmarked)
MIC: 50 µg/mL
//
Molecule: C[Si]1(C)OB(O)c2ccc(SCCC(=O)OCCCCCC[n+]3ccccc3)c(F)c21
MIC: > 400 µg/mL
//
Molecule: C[Si]1(C)OB(O)c2cc(F)c(SCCC(=O)OCCCCCC[n+]3ccccc3)c(F)c21
MIC: > 400 µg/mL

For each of the molecules below, state MIC.
1. C[Si]1(C)OB(O)c2cc(F)c(S(N)(=O)=O)c(F)c21
2. OC(Cn1cncn1)(Cn1cncn1)c1ccc(F)cc1F [FL, fluconazole, reference compound]
3. C[Si]1(C)OB(O)c2cc(F)c(SCCC#N)c(F)c21

1: > 400 µg/mL; 2: 16 µg/mL; 3: > 400 µg/mL

###

# System: Human normal lung fibroblasts MRC-5
# Assay Protocol: MTT-based viability (cytotoxicity) assay
# Run Parameters: 50 µg·mL−1, 48 h
Provide the recorded viability of MRC-5 for the entries that follow.

Some solved entries appear below for comparison.
Compound: C[Si]1(C)OB(O)c2cc(F)c(SCCS(=O)(=O)c3ccccc3)c(F)c21
viability of MRC-5: 84.0±1.5 % of control ± SD

Compound: C[Si]1(C)OB(O)c2cc(F)c(SC3CC(=O)NC3=O)c(F)c21 (centres unmarked)
viability of MRC-5: 86.1±6.9 % of control ± SD

Compound: C[Si]1(C)OB(O)c2ccc(SC3CC(=O)N(c4ccc(Br)c(C(F)(F)F)c4)C3=O)c(F)c21 (centres unmarked)
viability of MRC-5: 89.2±8.5 % of control ± SD

Compound: C[Si]1(C)OB(O)c2cc(F)c(SC3CC(=O)N(c4ccc(F)cc4)C3=O)c(F)c21 (centres unmarked)
viability of MRC-5: 80.3±7.5 % of control ± SD

Compound: C[Si]1(C)OB(O)c2cc(F)c(SC3CC(=O)N(c4ccc(Br)c(C(F)(F)F)c4)C3=O)c(F)c21 (centres unmarked)
viability of MRC-5: 62.7±2.5 % of control ± SD

For each of the compounds below, state viability of MRC-5.
1. C[Si]1(C)OB(O)c2ccc(SC3CC(=O)N(c4ccc(F)cc4)C3=O)c(F)c21 (centres unmarked)
2. C[Si]1(C)OB(O)c2ccc(SCC(=O)c3ccccc3)c(F)c21
3. C[Si]1(C)OB(O)c2cc(F)c(S(N)(=O)=O)c(F)c21

1. 69.9±1.8 % of control ± SD
2. 85.9±5.1 % of control ± SD
3. 79.7±7.5 % of control ± SD

###

Provide the recorded viability of MRC-5 for the entries that follow.
# Tested on: Human normal lung fibroblasts MRC-5
# Assay Protocol: MTT-based viability (cytotoxicity) assay
# Run Parameters: 400 µg·mL−1, 48 h

Compound: C[Si]1(C)OB(O)c2cc(F)c(SC3CC(=O)N(c4ccc(F)cc4)C3=O)c(F)c21 (stereo not drawn)
Target Entity: Human normal lung fibroblasts MRC-5
Endpoint Value: 0.1±0.1 % of control ± SD

For each of the compounds below, state viability of MRC-5.
1. C[Si]1(C)OB(O)c2cc(F)c(S(N)(=O)=O)c(F)c21
2. C[Si]1(C)OB(O)c2cc(F)c(SC3CC(=O)NC3=O)c(F)c21 (stereo not drawn)
3. C[Si]1(C)OB(O)c2ccc(SCC(=O)c3ccccc3)c(F)c21
4. C[Si]1(C)OB(O)c2ccc(SC3CC(=O)N(c4ccc(Br)c(C(F)(F)F)c4)C3=O)c(F)c21 (stereo not drawn)
5. CC(=O)CSc1ccc2c(c1F)[Si](C)(C)OB2O
6. C[Si]1(C)OB(O)c2cc(F)c(S(=O)(=O)N3CCOCC3)c(F)c21

1. 66.2±2.4 % of control ± SD
2. 0.4±0.2 % of control ± SD
3. 1.0±1.3 % of control ± SD
4. 0.0±0.0 % of control ± SD
5. 41.4±0.4 % of control ± SD
6. 60.4±5.2 % of control ± SD

For each of the compounds below, state viability of MRC-5.
1. C[Si]1(C)OB(O)c2cc(F)c(S(=O)(=O)Nc3ccc(F)cc3)c(F)c21
2. C[Si]1(C)OB(O)c2cc(F)c(SCCC#N)c(F)c21

1. 15.6±0.1 % of control ± SD
2. 29.5±5.8 % of control ± SD

###

# Test system: C. tropicalis IBA 171
# Assay Protocol: Antifungal activity: MIC/MFC, disc-diffusion
# Type: cell-based
# Run Parameters: Candida tropicalis, IBA171; read-out: MIC
# Excerpt: […]
Measure Name: MIC

Some solved entries appear below for comparison.
Compound: C[Si]1(C)OB(O)c2cc(F)c(S)c(F)c21
Target Entity: C. tropicalis IBA 171
MIC: 200 µg/mL
--
Compound: C[Si]1(C)OB(O)c2ccc(SC(=O)c3ccc(C(F)(F)F)cc3)c(F)c21
Target Entity: C. tropicalis IBA 171
MIC: 50 µg/mL
--
Compound: C[Si]1(C)OB(O)c2ccc(SC3CC(=O)NC3=O)c(F)c21 (centres unmarked)
Target Entity: C. tropicalis IBA 171
MIC: > 400 µg/mL
--
Compound: C[Si]1(C)OB(O)c2cc(F)c(SC3CC(=O)NC3=O)c(F)c21 (centres unmarked)
Target Entity: C. tropicalis IBA 171
MIC: > 400 µg/mL
--
Compound: CC(=O)CSc1ccc2c(c1F)[Si](C)(C)OB2O
Target Entity: C. tropicalis IBA 171
MIC: > 400 µg/mL
--
Compound: C[Si]1(C)OB(O)c2ccc(SCCS(=O)(=O)c3ccccc3)c(F)c21
Target Entity: C. tropicalis IBA 171
MIC: 400 µg/mL

For each of the compounds below, state MIC.
1. COC(=O)CCSc1ccc2c(c1F)[Si](C)(C)OB2O
2. CC(=O)CCSc1c(F)cc2c(c1F)[Si](C)(C)OB2O
3. C[Si]1(C)OB(O)c2cc(F)c(S(=O)(=O)Nc3ccc(F)cc3)c(F)c21
4. C[Si]1(C)OB(O)c2cc(F)c(S(N)(=O)=O)c(F)c21
5. C[Si]1(C)OB(O)c2cc(F)c(S(=O)(=O)Cl)c(F)c21

["> 400 µg/mL", "400 µg/mL", "> 400 µg/mL", "> 400 µg/mL", "> 400 µg/mL"]
